System: KM12 colon
Test: NCI-60 one-dose screen, 48 h (100 = growth as untreated, 0 = no growth, -100 = all killed)
Conditions: 10 µM unless noted
Protocol: Growth inhibition of the KM12 human tumor cell line is measured as a screen for anti-cancer activity. Cells are grown in 96 well plates and exposed to the test compound for 48 hours. Compounds are tested at a single concentration, which is 10^-5 M for most compounds. The reported endpoint is percent growth (GI% or GIPRCNT), where numbers from 0 - 100% represent growth inhibition, and numbers from -100% - 0 represent cell death. For example, a value of 40 represents 60% growth inhibition. […]
This is part of a sample that, as a whole, favours compounds with a hit. Of some 83,000 tested, about 20% had one in any assay.
Kindly state growth for each of the entries shown.
The reply should contain only the number, in %.

Which value of growth has been reported for `CCOP(=O)(Cc1ccc(C#N)cc1)OCC` in the records?
107

Requested read-out: growth. Entry: CN1CC(=O)N(O)C1(C)c1cccnc1 (stereo not drawn)
108

Sample `N#CCCNc1ccccc1` — what was its growth?
113

Would you kindly share the measured growth for `CCOC(=O)[C@@H](C)C[C@H](Cc1ccccc1)NC(=O)c1csc([C@@H](C[C@H](C(C)C)N(C)C(=O)[C@@H](NC(=O)[C@H]2C[C@H](O)CCN2C)C(C)C)OC(C)=O)n1` ?
5.96

If you can, please state the reported growth value of `Nc1cc2nc3ccccc3nc2cc1N` .
91.6

Which growth value is on record for `COC(=O)[C@@H](C)C[C@H](Cc1ccc2ccccc2c1)NC(=O)c1csc([C@@H](C[C@H](C(C)C)N(C)C(=O)[C@@H](NC(=O)[C@H]2CCCCN2C)C(C)C)OC(C)=O)n1` ?
36.2

Would you mind telling me what growth value was observed for `Cc1cc(N(CCCl)CCCl)ccc1C=Nc1cccnc1` ?
102

Return reported growth; argument: Cc1ccc2c(C(C[N+](=O)[O-])c3cccs3)c(-c3ccccc3)[nH]c2c1 (stereo not drawn)
21.4

Recorded growth of O=C(CC1(O)C(=O)N(Cc2ccccc2)c2ccc(Br)cc21)c1ccc(C(=O)NCC2CCC3(CC2)OOC2(CCCCC2)OO3)cc1 (stereo not drawn) , please.
-57.5

Any idea what growth was measured for `CCOC(=O)N[C@H]1CCc2c(Br)c(OC)c(OC)c(OC)c2-c2ccc(SC)c(=O)cc21` ?
-8.71

Which growth is listed for `COc1ccc(/C(C)=C(\c2ccc(OCCN3CCOCC3)cc2)c2ccc(OC(=O)Cc3ccccc3)cc2)cc1` ?
103

I have this compound here, `C=C1C(=O)O[C@H]2[C@H]1CC/C(COC(=O)C(=O)c1cn(Cc3ccccc3)c3ccccc13)=C\CC[C@@]1(C)O[C@@H]21` , and I need its recorded growth.
-89.7

Would you kindly share the measured growth for O=C1OCC2=C1C(c1ccccc1)c1cc3c(cc1N2)OCO3 (stereo not drawn) ?
-32

Tell me the measured growth of Cc1cccc(N2CCN(C(C)C#N)CC2)c1 (stereo not drawn) , please.
108

Reported growth, compound O=C(O)C(O)C(O)C1[O][Sb]([c]2ccc([N+](=O)[O-])cc2)[O]C1CO (stereo not drawn) : ____
108

Reported growth for `COC(=O)[C@@H](C)C[C@H](Cc1ccccc1)NC(=O)c1csc([C@@H](C[C@H](C(C)C)N(C)C(=O)[C@@H](NC(=O)[C@H]2CCCCN2C)C(C(F)(F)F)C(F)(F)F)OC(C)=O)n1` : what is it?
7.94

Suppose we examine the compound CC(C)=CC1C(C(=O)OCc2cccc(Oc3ccccc3)c2)C1(C)C (stereo not drawn) ; what growth value has been reported?
97.3

Which value of growth has been reported for `O=[N+]([O-])c1cc([N+](=O)[O-])c(Nn2c3ccccc3c3ccccc32)c([N+](=O)[O-])c1` in the records?
4.34

I am curious: what growth value has been reported for `Cc1cc(NC(=O)NCc2ccc(N3C(N)=NC(N)=NC3(C)C)cc2)ccc1S(=O)(=O)F` ?
16.2

Look up growth: `COC(=O)[C@@H](C)C[C@H](Cc1ccccc1)NC(=O)c1csc([C@@H](C[C@H](C(C)C)N(C)C(=O)C2(NC(=O)[C@H]3CCCCN3C)CCC2)OC(C)=O)n1`
5.71

Using the record for `C[C@]12CCc3sc(NCCc4ccccc4)nc3C1=CC[C@@H]1[C@@H]2CC[C@]2(C)C(=O)CC[C@@H]12` , report its growth.
74.7

Query (compound): `CC(=O)O[C@H]1C(=O)[C@@]2(C)[C@H]([C@H](OC(=O)c3ccccc3)[C@]3(O)C[C@H](OC(=O)[C@H](OC(=O)OC[C@H]4COC(C)(C)O4)[C@@H](NC(=O)c4ccccc4)c4ccccc4)C(C)=C1C3(C)C)[C@]1(OC(C)=O)CO[C@@H]1C[C@@H]2O` ; field requested: growth
11.9

Any idea what its growth is? The compound is `CC(=O)O[C@H](C[C@H](C(C)C)N(C)C(=O)[C@@H](NC(=O)[C@H]1CCCCN1C)C(C)(C)C)c1nc(C(=O)N[C@@H](Cc2ccccc2)C[C@H](C)C(=O)O)cs1`
6.93

Reported growth for O=C(CC1(O)C(=O)N(Cc2ccccc2)c2ccc(Cl)cc21)c1ccc(C(=O)NCC2CCC3(CC2)OOC2(CCCCC2)OO3)cc1 (stereo not drawn) : what is it?
-67.3

Endpoint output: growth of `O=P(Oc1ccc(Cl)cc1)(N1CC1)N1CC1` . Value?
110

Consider the compound `O=C1CN=C(c2ccc(Cl)cc2)c2sccc2N1` and give its measured growth.
103

What does the record list as growth for `NC(N)=N/N=C\c1c[nH]c2ccc(Br)cc12` ?
94.9

// growth lookup, key: O=C1C2C(C(=O)[N]1[Hg][c]1cccs1)C1(Cl)C(Cl)=C(Cl)C2(Cl)C1(Cl)Cl (stereo not drawn)
87.3

Form field: reported growth of `C/C(=C\c1ccn(-c2ccc(N)c(F)c2)n1)[C@@H]1C[C@@H]2O[C@]2(C)CCC[C@H](C)[C@H](O)[C@@H](C)C(=O)C(C)(C)[C@@H](O)CC(=O)O1`
12.5

Which growth value belongs to `O=C1C(N2CC2)=C(N2CC2)C(=O)C(N2CC2)=C1N1CC1` ?
-58.6

What does the data say about its growth? Entry: `C[C@]12CCc3sc(-c4cccc(F)c4)nc3C1=CC[C@@H]1[C@@H]2CC[C@]2(C)C(=O)CC[C@@H]12`
46.5

Could you tell me which growth is on file for CCOC(=O)C(Cc1ccc(N(CCCl)CCCl)cc1)NC(=O)C(CC(C)C)NC(C)=O (stereo not drawn) ?
71.6

Returns the measured growth for the input compound. Input: `CC[C@H](NC(=O)[C@H]1CCCCN1C)C(=O)N(C)[C@H](C[C@@H](OC(C)=O)c1nc(C(=O)N[C@@H](Cc2ccccc2)C[C@H](C)C(=O)O)cs1)C(C)C`
7.87
